Can you tell me MIC for the items I'm about to list?
tested on: Enterococcus faecalis; test: Minimum concentration required to prevent the growth of vancomycin resistant (VanB) Enterococcus faecalis strain A1079; assay type: functional
Answers are plain numbers, in µg/mL.

Reference set, count: 5
O=C(O)c1cn(C2CC2)c2cc(N3CCN(CCO[C@@H]4O[C@@H](CO)[C@@H](O)[C@H](O)[C@@H]4O)CC3)c(F)cc2c1=O : 32
O=C(O)c1cn(C2CC2)c2cc(N3CCN(C4OC(CO)C(O)C(O)C4O)CC3)c(F)cc2c1=O (stereo in doubt; form 1) : 1
O=C(O)c1cn(C2CC2)c2cc(N3CCN(CCCO[C@@H]4O[C@@H](CO)[C@@H](O)[C@H](O)[C@@H]4O)CC3)c(F)cc2c1=O : 8
Cl.O=C(O)c1cn(C2CC2)c2cc(N3CCNCC3)c(F)cc2c1=O [CIPROFLOXACIN HYDROCHLORIDE] : 1
O=C(O)c1cn(C2CC2)c2cc(N3CCN(CCCO[C@@H]4O[C@@H](CO)[C@H](O)[C@H](O)[C@@H]4O)CC3)c(F)cc2c1=O : 16

Shifting focus to the compound that follows.
Measured MIC of `O=C(O)c1cn(C2CC2)c2cc(N3CCN(CCO[C@@H]4O[C@@H](CO)[C@H](O)[C@H](O)[C@@H]4O)CC3)c(F)cc2c1=O` : 32

###

system: Pseudomonas aeruginosa; assay: Minimum concentration required to prevent the growth of Pseudomonas aeruginosa strain 28215; type: functional
readout: MIC (µg/mL)
Numbers only, in µg/mL.

O=C(O)c1cn(C2CC2)c2cc(N3CCN(C4OC(CO)C(O)C(O)C4O)CC3)c(F)cc2c1=O (stereo in doubt; form 2) : 0.5

// each listed molecule needs a value for MIC
1. O=C(O)c1cn(C2CC2)c2cc(N3CCN(CCCO[C@@H]4O[C@@H](CO)[C@H](O)[C@H](O)[C@@H]4O)CC3)c(F)cc2c1=O
2. O=C(O)c1cn(C2CC2)c2cc(N3CCN(C4OC(CO)C(O)C(O)C4O)CC3)c(F)cc2c1=O (stereo in doubt; form 3)
3. O=C(O)c1cn(C2CC2)c2cc(N3CCN(CCCO[C@@H]4O[C@@H](CO)[C@@H](O)[C@H](O)[C@@H]4O)CC3)c(F)cc2c1=O

1. 16
2. 0.5
3. 4

# return MIC for each item in the list
1. O=C(O)c1cn(C2CC2)c2cc(N3CCN(CCO[C@@H]4O[C@@H](CO)[C@H](O)[C@H](O)[C@@H]4O)CC3)c(F)cc2c1=O
2. O=C(O)c1cn(C2CC2)c2cc(N3CCN(CCO[C@@H]4O[C@@H](CO)[C@@H](O)[C@H](O)[C@@H]4O)CC3)c(F)cc2c1=O

1: 16; 2: 32

###

tested on: Listeria monocytogenes; experiment: Minimum concentration required to prevent the growth of Listeria monocytogenes strain A0183; format: functional
Record form. Attribute: MIC. Fill in for each entry.
Give bare numbers, in µg/mL.

Examples from the recorded data:
O=C(O)c1cn(C2CC2)c2cc(N3CCN(C4OC(CO)C(O)C(O)C4O)CC3)c(F)cc2c1=O (stereo in doubt; form 3) : 2
O=C(O)c1cn(C2CC2)c2cc(N3CCN(CCCO[C@@H]4O[C@@H](CO)[C@@H](O)[C@H](O)[C@@H]4O)CC3)c(F)cc2c1=O : 8
O=C(O)c1cn(C2CC2)c2cc(N3CCN(CCCO[C@@H]4O[C@@H](CO)[C@H](O)[C@H](O)[C@@H]4O)CC3)c(F)cc2c1=O : 32
Cl.O=C(O)c1cn(C2CC2)c2cc(N3CCNCC3)c(F)cc2c1=O [CIPROFLOXACIN HYDROCHLORIDE] : 1

Proceeding to the next compound to report its MIC.
// MIC value for O=C(O)c1cn(C2CC2)c2cc(N3CCN(C4OC(CO)C(O)C(O)C4O)CC3)c(F)cc2c1=O (stereo in doubt; form 2) : 2

Hello, the source for this data is ChEMBL document CHEMBL1132401, in case you need it.
